measured-target: Estrogen receptor (Homo sapiens) (UniProt P03372)
Sequence (P03372 whole entry, looked up): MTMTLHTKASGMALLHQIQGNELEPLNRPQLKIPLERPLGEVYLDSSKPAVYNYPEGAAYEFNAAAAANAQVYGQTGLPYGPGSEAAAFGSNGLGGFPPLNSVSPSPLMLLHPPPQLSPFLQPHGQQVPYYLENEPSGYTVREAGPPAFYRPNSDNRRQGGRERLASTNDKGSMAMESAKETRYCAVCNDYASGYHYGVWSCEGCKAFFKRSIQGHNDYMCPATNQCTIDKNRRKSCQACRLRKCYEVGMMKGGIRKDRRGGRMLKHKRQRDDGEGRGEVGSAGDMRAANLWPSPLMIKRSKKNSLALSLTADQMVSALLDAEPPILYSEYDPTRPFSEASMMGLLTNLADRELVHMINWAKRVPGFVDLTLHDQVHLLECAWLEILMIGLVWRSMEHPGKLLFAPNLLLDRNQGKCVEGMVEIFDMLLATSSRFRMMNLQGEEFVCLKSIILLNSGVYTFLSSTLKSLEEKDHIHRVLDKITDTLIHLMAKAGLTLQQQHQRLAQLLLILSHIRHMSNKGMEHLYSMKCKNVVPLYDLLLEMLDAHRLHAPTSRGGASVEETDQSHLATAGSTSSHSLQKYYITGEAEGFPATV
method-description: ERalpha ligand binders by competition, primary screen, cell-based, Cos7 ERalpha-GFP, flow cytometry (AID 1211);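 note: 0% = DMSO vehicle wells and 100% = no E2-Alexa633 signal left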
test-settings: fluorescent ligand competition, at 10 µM
Calls of active or inactive are those of the source. The rule behind the calls is not given here.
Labels: TRUE (active), FALSE (inactive)

compound=COc1ccc(-c2nc(C(N)=O)c3[nH]c(=O)n(-c4cccc(Cl)c4)c3n2)cc1OC cat=FALSE
compound=O=C1C(c2ccnc3ccccc23)=C(O)c2ccccc21 cat=FALSE
compound=Cc1ccc(NC(=O)CSc2nnnn2-c2ccc3c(c2)OCO3)cc1C cat=FALSE
compound=COc1cc(/C=N/N2CCN(C3c4ccccc4-c4ccccc43)CC2)cc(OC)c1O cat=FALSE
compound="O=C1NCCCC2c3cc(O)c4ccccc4c3OC12N1CCCCC1 (stereo unspecified)" cat=FALSE
compound="CC(C)C1Nc2c(O)cc(Cl)c([N+](=O)[O-])c2C2C=CCC21 (stereo unspecified)" cat=FALSE
compound=O=C(O)c1cc(-c2ccc(O)cc2)nc2ccccc12 cat=FALSE
compound=Cc1ccc(Nc2nnc(SCC(=O)NCc3ccco3)s2)cc1 cat=FALSE
compound=Cc1ccc2nc(/C(C#N)=C\c3ccc(N4CCCCC4)c([N+](=O)[O-])c3)[nH]c2c1 cat=FALSE
compound=Cc1ccc(Oc2cc(N3CCOCC3)nc(-c3ccccc3)n2)cc1 cat=TRUE
compound=c1ccc(Cc2nnc3sc(-c4ccco4)nn23)cc1 cat=FALSE

----------
measured-target: Estrogen receptor (Homo sapiens)
method-description: ERalpha ligand binders by competition, primary screen, cell-based, Cos7 ERalpha-GFP, flow cytometry (AID 1211);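 note: 0% = DMSO vehicle wells and 100% = no E2-Alexa633 signal left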
test-settings: fluorescent ligand competition, at 10 µM
Activity calls are given as the source filed them. No rule for the calls is given here.
Labels: label 1 = active, label 0 = inactive

compound=Oc1ccc(-c2nc3ccc4ccccc4c3c3c2CCC3)cc1O cat="label 0"
compound=O=c1cc(O)c2sc(Nc3ccc(F)cc3)nc2[nH]1 cat="label 0"
compound="O=C(O)C1Nc2c(O)cccc2C2C=CCC12 (stereo not given)" cat="label 0"
compound="CCOc1ccc(C2C3=C(Nc4nc(N)[nH]c(=O)c42)c2ccccc2C3=O)cc1 (stereo not given)" cat="label 0"
compound=CCCc1nc2sc3ccccc3c(=O)c2c(=O)n1Cc1ccco1 cat="label 0"
compound="CCc1ccc2[nH]c(=O)c(C3C(C#N)=C(N)Oc4c3ccc3cccnc43)cc2c1 (stereo not given)" cat="label 0"
compound=O=C(Cc1cccs1)Nc1ccc(S(=O)(=O)N2CCCCC2)cc1 cat="label 0"
compound="c1ccc(OCc2nnc3sc(C4COc5ccccc5O4)nn23)cc1 (stereo not given)" cat="label 0"
compound=O=c1[nH]cnc2c1sc1nc3c(c(-c4ccc(Cl)cc4)c12)CCC3 cat="label 0"
compound="O=C(NNC(=O)c1ccc(SCC2CCCO2)c([N+](=O)[O-])c1)c1ccc(Cl)c([N+](=O)[O-])c1 (stereo not given)" cat="label 0"
compound=CC1(C)N=C(N)N=C(N)N1c1ccc(C(=O)O)cc1 cat="label 0"
compound="CC1CC(C(F)(F)C(F)(F)F)n2nc(C(=O)O)cc2N1 (stereo not given)" cat="label 0"
compound=Cc1nnc(Oc2ccccc2F)c2ccccc12 cat="label 0"
compound=Cc1ccccc1Nc1nnc(SCC(=O)NCc2ccco2)s1 cat="label 0"
compound=O=C(Oc1cccc(-c2cnc3ccccc3n2)c1)c1ccco1 cat="label 0"
compound=O=c1cc(-c2ccco2)oc2c1ccc1ccccc12 cat="label 0"
compound=Cc1ccc(OCc2ccoc2C(=O)O)cc1C cat="label 0"
compound=COc1ccc(OC)c(NC(=O)c2cc(-c3ccc(C)cc3O)n[nH]2)c1 cat="label 0"
compound=COc1ccc(NS(=O)(=O)c2ccc3c(c2)[C@H]2C=CC[C@H]2[C@@H](c2ccc(C(=O)O)cc2)N3)cc1 cat="label 1"
compound=C=C1c2ccc(OC)cc2NC(=O)N1c1ccccc1 cat="label 0"

----------
measured-target: Estrogen receptor (Homo sapiens) (UniProt P03372)
method-description: ERalpha ligand binders by competition, primary screen, cell-based, Cos7 ERalpha-GFP, flow cytometry (AID 1211);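 note: 0% = DMSO vehicle wells and 100% = no E2-Alexa633 signal left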
test-settings: fluorescent ligand competition, binding inhibition, at 0.1 µM, stronger effect = higher value
Below is a list of entries, each paired with its recorded inhibition of ligand binding value.
readout-type: inhibition of ligand binding (%)

compound=Cc1cc2n(c1)CCn1c(C)ccc1-2 uom=% data_value=53
compound="O=c1c(OC2OC(CO)C(O)C(O)C2O)c(-c2ccc(O)c(O)c2)oc2cc(O)cc(O)c12 (centres undefined)" uom=% data_value=33
compound=CCOc1ccc2nc(NC(=O)CCC(=O)c3cccs3)sc2c1 uom=% data_value=17
compound=O=Cc1cn(-c2ccccc2)nc1-c1cc2c(ccc3ccccc32)oc1=O uom=% data_value=55

----------
measured-target: Estrogen receptor (Homo sapiens)
method-description: ERalpha ligand binders by competition, primary screen, cell-based, Cos7 ERalpha-GFP, flow cytometry (AID 1211);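 note: 0% = DMSO vehicle wells and 100% = no E2-Alexa633 signal left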
test-settings: fluorescent ligand competition, at 10 µM, stronger effect = higher value
Below is a list of entries, each paired with its recorded inhibition of ligand binding value.
readout-type: inhibition of ligand binding (%)

compound=CCCCc1cc2c(=O)c(-c3ccccn3)coc2cc1O readout_type="inhibition of ligand binding" data_value=1
compound=CCc1ccc(NC(=O)c2noc3c2CCC3)cc1 readout_type="inhibition of ligand binding" data_value=2
compound="COc1ccc2c(c1)C1C=CCC1C(c1cc3c(cc1Br)OCO3)N2 (centres undefined)" readout_type="inhibition of ligand binding" data_value=0
compound="CCSc1nnc(NC(=O)C2Cc3ccccc3CN2C(=O)c2ccco2)s1 (centres undefined)" readout_type="inhibition of ligand binding" data_value=26

----------
measured-target: Estrogen receptor (Homo sapiens) (UniProt P03372)
method-description: ERalpha ligand binders by competition, primary screen, cell-based, Cos7 ERalpha-GFP, flow cytometry (AID 1211);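 note: 0% = DMSO vehicle wells and 100% = no E2-Alexa633 signal left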
test-settings: fluorescent ligand competition, binding inhibition, at 0.1 µM, stronger effect = higher value
just bin them by inhibition of ligand binding: group A (below 10%), group B (10% to below 40%), group C (40% or more)

compound="CC(Cc1ccc(O)c(O)c1)C(C)Cc1ccc(O)c(O)c1 (configuration not stated)" cat="group A"
compound=COc1ccc(NC(=O)CN(c2ccccc2)S(=O)(=O)N(C)C)cc1OC cat="group B"
compound=COC(=O)c1[nH]c2ccc(C)cc2c1NC(=O)CN1CCCc2ccccc21 cat="group A"
compound=O=C(/C=C/c1ccc(O)cc1)c1ccc(O)cc1O cat="group B"
compound=Cc1cc(N)ccc1N=Nc1c(C)n(C)n(-c2ccccc2)c1=O cat="group A"
compound=O=c1cc(-c2ccco2)oc2c1ccc1ccccc12 cat="group A"
compound=Cc1ccc(-n2nnnc2SCC(=O)Nc2cccc(NC(=O)c3ccco3)c2)cc1C cat="group A"
compound=Cc1cc(-c2nnc3sc(-c4ccc(Cl)cc4Cl)nn23)n[nH]1 cat="group C"
compound=CN(c1ccccc1C(=O)O)S(=O)(=O)c1ccc2c3c(cccc13)C(=O)N2 cat="group B"
compound=Cc1ccc(-c2n[nH]c(=S)n2/N=C/C=C/c2ccccc2[N+](=O)[O-])cc1 cat="group B"
compound="CCOC(=O)C1=c2/c(=C/c3ccccc3OC)c(N)c(C#N)n2C(=O)C(c2ccccc2OC)S1 (configuration not stated)" cat="group B"
compound=Cc1ccnc(NS(=O)(=O)c2ccc(NC(=O)Cc3cccs3)cc2)n1 cat="group C"
compound=Cc1ccccc1NC(=O)CSc1nnc(-c2ccco2)c(-c2ccco2)n1 cat="group C"
compound=Nc1ccc2nc(-c3cccs3)[nH]c2c1 cat="group C"
compound=O=S(=O)(Nc1ncnc2sc3c(c12)CCC3)c1ccc2ccccc2c1 cat="group B"
compound=O=C(COC(=O)c1ccccc1Oc1ccccc1)NCc1ccco1 cat="group C"

----------
Below is a list of entries, each paired with its recorded inhibition of ligand binding value.
measured-target: Estrogen receptor (Homo sapiens) (UniProt P03372)
method-description: ERalpha ligand binders by competition, primary screen, cell-based, Cos7 ERalpha-GFP, flow cytometry (AID 1211);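 note: 0% = DMSO vehicle wells and 100% = no E2-Alexa633 signal left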
test-settings: fluorescent ligand competition, binding inhibition, at 0.1 µM, stronger effect = higher value
readout-type: inhibition of ligand binding (%)

molecule=C1CCC(c2nn3c(-c4n[nH]c5c4CCC5)nnc3s2)CC1 readout_type="inhibition of ligand binding" data_value=5
molecule=Clc1ccc(Sc2cc(N3CCOCC3)nc(-c3ccccc3)n2)cc1 readout_type="inhibition of ligand binding" data_value=25
molecule=COc1ccc(N2Cc3cccc(C(=O)O)c3C2=O)cc1 readout_type="inhibition of ligand binding" data_value=44
molecule="CCOc1ccccc1C1C(C#N)=C(N)Nc2onc(-c3ccccc3)c21 (centres undefined)" readout_type="inhibition of ligand binding" data_value=20

----------
measured-target: Estrogen receptor (Homo sapiens)
method-description: ERalpha ligand binders by competition, primary screen, cell-based, Cos7 ERalpha-GFP, flow cytometry (AID 1211);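 note: 0% = DMSO vehicle wells and 100% = no E2-Alexa633 signal left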
test-settings: fluorescent ligand competition, at 10 µM, stronger effect = higher value
just bin them by inhibition of ligand binding: band A = under 20%, band B = from 20% up to 40%, band C = 40% and over

compound=COc1ccc2c(c1)c(=O)oc1cc(OCC(=O)NC3CCCCC3)ccc12 cat="band C"
compound=Cc1cc(C(=O)CSc2nnc(-c3ccccc3F)o2)c(C)n1Cc1cccs1 cat="band C"
compound="CCOC(=O)C1=C(C)NC(=O)NC1c1ccco1 (stereo unspecified)" cat="band C"
compound="COc1ccc(C2Nc3ccccc3C(=O)N2c2ccccc2)cc1COc1ccccn1 (stereo unspecified)" cat="band A"
compound=Cc1ccc2c(Cl)cc(Cl)c(OCC(=O)NCc3ccco3)c2n1 cat="band B"
compound="COc1ccc(NC(=O)C(NC(=O)c2ccc(=O)[nH]c2)c2ccc(C)cc2)cc1 (stereo unspecified)" cat="band A"
compound=O=C(COC(=O)CCOc1ccccc1)NCc1ccco1 cat="band C"
compound=CCOC(=O)N1CCc2[nH]c3ccc(C)cc3c2C1 cat="band A"
compound="COc1ccc(C2C=C(c3ccc(Cl)cc3)Nc3nc(NC(C)=O)nn32)cc1 (stereo unspecified)" cat="band C"
compound=CCc1ccc2nc(NC(=O)c3ccc4c(=O)[nH]c(CN5CCOCC5)nc4c3)sc2c1 cat="band B"
compound="CC(=O)Oc1ccc2c(c1)CCC1C2C(O)CC2(C)C(=O)CCC12 (stereo unspecified)" cat="band A"
compound="O=C(O)C1OC(Oc2c(-c3ccc(O)c(O)c3)oc3cc(O)cc(O)c3c2=O)C(O)C(O)C1O (stereo unspecified)" cat="band A"
compound=COc1ccc(-c2cn3c(C)c(C(=O)Nc4ccncc4)sc3n2)cc1 cat="band B"
compound="CCOC(=O)C1CCCN(C(=O)c2cc3ncc(Br)cn3n2)C1 (stereo unspecified)" cat="band A"
compound="Cc1nnc(NC(=O)CSc2nc3c(c(=O)n2CCc2ccccc2)SC(C)C3)s1 (stereo unspecified)" cat="band B"
compound=Cc1ccc(-c2nn(-c3ccccc3)cc2CSC(=N)N)cc1 cat="band B"
compound=COC(=O)c1ccc(CC(=O)c2ccc(O)cc2O)o1 cat="band B"
compound=O=C(O)c1ccc2c(c1)[C@@H]1C=CC[C@@H]1[C@H](c1ccccn1)N2 cat="band C"

FYI, the data here is from PubChem BioAssay AID1211.
